Readings of GI50 for the listed compounds
Tested on: MDA-MB-231
Assay: Cytotoxicity against human MDA-MB-231 cells
Assay type: functional
Measurement Kind: GI50 (nM)

| Smiles Repr | Target Entity | Experimental Value |
| --- | --- | --- |
| C[C@]12CC[C@@H]3c4ccc(O)cc4CC[C@H]3[C@@H]1CC[C@@H]2NS(=O)(=O)c1cccc(Br)c1 | MDA-MB-231 | 3900 |
| C[C@]12CC[C@@H]3c4ccc(O)c([N+](=O)[O-])c4CC[C@H]3[C@@H]1CC[C@@H]2NS(=O)(=O)c1cccc(Br)c1 | MDA-MB-231 | 1500 |
| C[C@]12CC[C@@H]3c4ccc(O)c([N+](=O)[O-])c4CC[C@H]3[C@@H]1CC[C@@H]2NS(=O)(=O)c1cccc(C(F)(F)F)c1 | MDA-MB-231 | 1900 |
| C[C@]12CC[C@@H]3c4ccc(O)cc4CC[C@H]3[C@@H]1CC[C@@H]2NS(=O)(=O)c1cccc(C(F)(F)F)c1 | MDA-MB-231 | 2400 |

###

System: NCI-H226
Test: Cytotoxicity against human NCI-H226 cells
Type: functional

| Smiles Repr | GI50 |
| --- | --- |
| C[C@]12CC[C@@H]3c4ccc(O)cc4CC[C@H]3[C@@H]1CC[C@@H]2NS(=O)(=O)c1cccc(C(F)(F)F)c1 | 1000 nM |
| C[C@]12CC[C@@H]3c4ccc(O)cc4CC[C@H]3[C@@H]1CC[C@@H]2NS(=O)(=O)c1cccc(Br)c1 | 1000 nM |
| C[C@]12CC[C@@H]3c4ccc(O)c([N+](=O)[O-])c4CC[C@H]3[C@@H]1CC[C@@H]2NS(=O)(=O)c1cccc(Br)c1 | 1000 nM |
| C[C@]12CC[C@@H]3c4ccc(O)c([N+](=O)[O-])c4CC[C@H]3[C@@H]1CC[C@@H]2NS(=O)(=O)c1cccc(C(F)(F)F)c1 | 1000 nM |

###

Tested on: BT-549
Test: Cytotoxicity against human BT549 cells
Assay type: functional
Measurement Kind: GI50

| Smiles Repr | Measurement Kind | Experimental Value |
| --- | --- | --- |
| C[C@]12CC[C@@H]3c4ccc(O)c([N+](=O)[O-])c4CC[C@H]3[C@@H]1CC[C@@H]2NS(=O)(=O)c1cccc(C(F)(F)F)c1 | GI50 | 1.9 µM |
| C[C@]12CC[C@@H]3c4ccc(O)c([N+](=O)[O-])c4CC[C@H]3[C@@H]1CC[C@@H]2NS(=O)(=O)c1cccc(Br)c1 | GI50 | 1.6 µM |
| C[C@]12CC[C@@H]3c4ccc(O)cc4CC[C@H]3[C@@H]1CC[C@@H]2NS(=O)(=O)c1cccc(C(F)(F)F)c1 | GI50 | 2.7 µM |
| C[C@]12CC[C@@H]3c4ccc(O)cc4CC[C@H]3[C@@H]1CC[C@@H]2NS(=O)(=O)c1cccc(Br)c1 | GI50 | 3.1 µM |

###

List of GI50 values.
System: UACC-62
Assay: Cytotoxicity against human UACC62 cells
Assay type: functional

| Smiles Repr | GI50, nM |
| --- | --- |
| C[C@]12CC[C@@H]3c4ccc(O)c([N+](=O)[O-])c4CC[C@H]3[C@@H]1CC[C@@H]2NS(=O)(=O)c1cccc(Br)c1 | 1000 |
| C[C@]12CC[C@@H]3c4ccc(O)c([N+](=O)[O-])c4CC[C@H]3[C@@H]1CC[C@@H]2NS(=O)(=O)c1cccc(C(F)(F)F)c1 | 1000 |
| C[C@]12CC[C@@H]3c4ccc(O)cc4CC[C@H]3[C@@H]1CC[C@@H]2NS(=O)(=O)c1cccc(C(F)(F)F)c1 | 1000 |
| C[C@]12CC[C@@H]3c4ccc(O)cc4CC[C@H]3[C@@H]1CC[C@@H]2NS(=O)(=O)c1cccc(Br)c1 | 1000 |
